Experiment Summary: Induction of anti-CD3/CD28 antibodies-stimulated human T cell activation at 0.3 uM assessed fold increase in CD25 expression measured by ELISA assay
Format: functional, T cell line
Property Label: fold change (FC)
Could you keep your reply to the number by itself?

Before answering, review these 3 worked examples.
Compound	Result
C[C@H](Cc1nncn1C)c1cc(NC2COC2)cc(N2Cc3c(cccc3C(F)(F)F)C2=O)c1	1.01
C[C@H](Cc1nncn1C)c1cccc(NC(=O)c2ccnc3ccnn23)c1	1.01
Cn1cnnc1CC1(c2cccc(N3Cc4c(cc(N5CC(C(F)F)C5)nc4C4CC4)C3=O)c2)COC1	1.01

input: Which fold change (FC) reading was recorded for the compound `Cn1cnnc1CC1(c2cccc(NC(=O)c3ccnc4ccnn34)c2)COC1` ?
output: 1.01

input: Same again, this time with `Cn1cnnc1C(F)(F)[C@](C)(F)c1cccc(N2Cc3c(cc(N4CCNCC4)cc3C(F)(F)F)C2=O)c1`
output: 1.31

input: Same again, this time with `Cn1cnnc1[C@H](F)C1(c2cccc(N3Cc4c(cc(CN5CCCCC5)cc4C(F)(F)F)C3=O)c2)COC1`
output: 1.01
